Reference source: ChEMBL document CHEMBL1201862

# System: HCT-116
# METHOD: NCI tumour cell line growth inhibition, 48 h
Activity calls are given as the source filed them. No stated cut-off is given here; in the data, active = GI50 up to about 1.1 µM and inactive = higher.
MEASUREMENT NAME: GI50

State recorded GI50 with HCT-116, entry COC(=O)C1(C#N)C(C)(C)N=C(c2ccccc2)C12CCCCC2 (stereo unspecified) , no comment.
> 100 µM (inactive)

Using HCT-116 as the test system, report measured GI50 of CCCC(=O)Oc1ccc(/C=N/NC(N)=S)nc1 .
> 100 µM (inactive)

Given CCCN(CCC)c1c([N+](=O)[O-])cc(C(=O)N(CCO)CCO)cc1[N+](=O)[O-] , report its GI50 on HCT-116.
> 100 µM (inactive)

Jot down GI50 (HCT-116) of Cc1cc2c(cc1C)[n+]([O-])c(C(=O)CC(=O)C(=O)Nc1ccccc1C(C)C)c(C)[n+]2[O-] .
> 100 µM (inactive)

Report GI50 under test system HCT-116 for CCOC(=O)C(=CNC(=S)Nc1c(CC)cccc1CC)C(=O)OCC .
> 100 µM (inactive)

Report GI50 from HCT-116 testing of CN(C)C(=S)SN(C)C(=O)Nc1ccccc1
8.91 µM (inactive)

----------
# Test system: UACC-62
# METHOD: NCI tumour cell line growth inhibition, 48 h
Active and inactive are the calls of the source. No stated cut-off is given here; in the data, active = GI50 up to about 1.1 µM and inactive = higher.
Tick one outcome: active, inactive

{"columns": ["MOLECULE", "TARGET DESC", "ASSIGNED LABEL"],
 "data": [
  ["COc1ccc(C(=O)C(c2ccc(OCc3ccccc3)cc2)c2ccc(OCc3ccccc3)cc2)cc1", "UACC-62", "inactive"],
  ["CCOP(=O)(OCC)/C(=C/c1ccccc1)CC(C)=O", "UACC-62", "inactive"],
  ["COc1ccc(-c2cc(=O)c3c(O)c(OC)c(O)cc3o2)cc1O", "UACC-62", "inactive"],
  ["CC(C)NC(=O)OCc1c(COC(=O)NC(C)C)c(-c2ccc[n+](COC(=O)C3CCCCC3)c2)n2c1CCC2", "UACC-62", "inactive"]
]}

State the result this test recorded for Cc1[nH]c2ncn(Nc3ccccc3)c(=N)c2c1Cc1ccccc1 .
active

Look up the recorded call for C=CC(C)(C)C1(CC(OC)OC)C(=O)N(C)c2ccccc21 (stereo unspecified) in this test.
inactive

----------
# Test system: OVCAR-4
# METHOD: NCI tumour cell line growth inhibition, 48 h
Calls of active or inactive are those of the source. No stated cut-off is given here; in the data, active = GI50 up to about 1.1 µM and inactive = higher.
Catalogue of compounds with associated GI50

{"columns": ["COMPOUND", "GI50"],
 "data": [
  ["CCOC(=O)C1CCn2c(nc3c2c(=O)n(C)c(=O)n3C)S1 (stereo unspecified)", "> 100 µM (inactive)"],
  ["COc1ccc(/C=C2\\C(=O)Nc3ccccc32)cc1OC", "97.3 µM (inactive)"],
  ["CCN(CC)CCC(=O)N1CCc2c([nH]c3ccccc23)C1c1cccnc1 (stereo unspecified)", "> 100 µM (inactive)"],
  ["CN(C)/N=N/c1ccccc1", "> 100 µM (inactive)"],
  ["COC(=O)C(F)C(Br)C(=O)OC (stereo unspecified)", "3.39 µM (inactive)"]
]}

Enter measured GI50, system OVCAR-4, for the compound shown: CC(C)(C)OC(=O)NCCCC(=O)NC1(c2cc3ccccc3s2)CCCCC1
20.5 µM (inactive)
